Where do the numbers come from? From paper PMC8597734.

Assay: Mouse oral pharmacokinetics
Format: in vivo
Settings: female, mouse, plasma; CD-1 mice, oral 400 mg/kg; mean (SD); read-out: Elimination T1/2 _400 mg/kg (converted)

smilesNotation: COc1cnc2ccc(=O)n(CCN3CCC(NCc4cnc(CO)c(Cl)c4)CC3)c2c1
half-life: 3.6 h

----------
Test: Mouse oral pharmacokinetics
Assay type: in vivo
Conditions: female, mouse, plasma; CD-1 mice, oral 50 mg/kg; mean (SD); read-out: Elimination T1/2 _50 mg/kg (converted)

smilesNotation: COc1cnc2ccc(=O)n(CCN3CCC(NCc4cnc(CO)c(Cl)c4)CC3)c2c1
half-life, h: 2.7

----------
Assay: Mouse oral pharmacokinetics
Assay type: in vivo
Settings: female, mouse, plasma; CD-1 mice, oral 50 mg/kg; mean (SD); read-out: AUC[0-24]_50 mg/kg

smilesNotation: COc1cnc2ccc(=O)n(CCN3CCC(NCc4cnc(CO)c(Cl)c4)CC3)c2c1
AUC(0-t), ng·h/mL: 2900

----------
Experiment: Mouse oral pharmacokinetics
Type: in vivo
Details: female, mouse, plasma; CD-1 mice, oral 200 mg/kg; mean (SD); read-out: Elimination T1/2 _200 mg/kg (converted)

smilesNotation: COc1cnc2ccc(=O)n(CCN3CCC(NCc4cnc(CO)c(Cl)c4)CC3)c2c1
half-life: 1.7 h

----------
Experiment: Mouse oral pharmacokinetics
Type: in vivo
Details: female, CD-1, mouse, plasma; mice, oral 200 mg/kg; below limit of quantitation (LOQ); read-out: plasma concentration at the 24h time point

smilesNotation: COc1cnc2ccc(=O)n(CCN3CCC(NCc4cnc(CO)c(Cl)c4)CC3)c2c1
concentration at 24 h: < 20 ng/mL

----------
Test: Mouse oral pharmacokinetics
Type: in vivo
Conditions: female, mouse, plasma; CD-1 mice, oral 200 mg/kg; mean (SD); read-out: AUC[0-24]_200 mg/kg
Description: All animal studies were ethically reviewed and carried out in accordance with the Institutional Animal Care and Use Committee of Hackensack Meridian Health. Six-week-old CD-1 female mice (20–25 g) were used in pharmacokinetic studies. […] Plasma was recovered after centrifugation and stored at −80°C until analyzed by high pressure liquid chromatography coupled to tandem mass spectrometry. […]

smilesNotation: COc1cnc2ccc(=O)n(CCN3CCC(NCc4cnc(CO)c(Cl)c4)CC3)c2c1
AUC(0-t), ng·h/mL: 33400

----------
Assay: Mouse oral pharmacokinetics
Type: in vivo
Details: female, mouse, plasma; CD-1 mice, oral 400 mg/kg; mean (SD); read-out: AUC[0-24]_400 mg/kg

smilesNotation: COc1cnc2ccc(=O)n(CCN3CCC(NCc4cnc(CO)c(Cl)c4)CC3)c2c1
AUC(0-t) [µg·h/mL]: 80.7

----------
Test: ChromlogD assay
Type: physicochemical
Details: reversed phase HPLC column (Gemini NX C18); read-out: LogD
metric: chromatographic logD

compound: COc1cnc2ccc(=O)n(CCN3CCC(NCc4cnc(CO)c(Cl)c4)CC3)c2c1 [EC/11716]
reportedResult: 1.74

----------
Assay: AMP (artificial membrane permeability) assay
Type: in vitro ADME
Conditions: PAMPA, pH 7.4

smilesNotation: COc1cnc2ccc(=O)n(CCN3CCC(NCc4cnc(CO)c(Cl)c4)CC3)c2c1
Papp at 3 h: 16 ×10⁻⁶ cm/s

----------
Biological target: human serum albumin (Homo sapiens, UniProt P02768)
Construct: purchased Chiral Technologies Ltd., France
Sequence (P02768 25-609): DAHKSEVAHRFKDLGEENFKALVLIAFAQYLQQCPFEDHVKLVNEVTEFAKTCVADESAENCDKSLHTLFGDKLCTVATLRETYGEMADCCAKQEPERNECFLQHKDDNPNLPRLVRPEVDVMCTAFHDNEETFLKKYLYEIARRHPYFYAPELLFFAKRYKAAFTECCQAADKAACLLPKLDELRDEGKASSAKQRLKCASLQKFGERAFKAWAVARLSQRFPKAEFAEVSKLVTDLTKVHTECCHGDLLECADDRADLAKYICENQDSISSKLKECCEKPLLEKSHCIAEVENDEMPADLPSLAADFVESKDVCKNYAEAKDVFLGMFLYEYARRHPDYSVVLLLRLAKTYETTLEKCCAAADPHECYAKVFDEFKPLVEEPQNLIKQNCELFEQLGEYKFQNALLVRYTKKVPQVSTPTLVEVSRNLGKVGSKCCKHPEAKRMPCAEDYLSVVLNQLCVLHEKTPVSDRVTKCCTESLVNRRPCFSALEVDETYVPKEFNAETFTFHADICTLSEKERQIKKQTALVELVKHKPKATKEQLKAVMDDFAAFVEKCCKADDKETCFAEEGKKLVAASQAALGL
Experiment: Drug binding to human serum albumin (HSA HPLC column)
Format: in vitro ADME
Conditions: immobilized human serum albumin HPLC column, pH 7.4, read-out: Protein binding (converted)
metric: fraction unbound

smilesNotation: COc1cnc2ccc(=O)n(CCN3CCC(NCc4cnc(CO)c(Cl)c4)CC3)c2c1
reportedResult: 0.505
